Property label: IC50

The reported UniProtKB Q8N4C8 IC50 of CCN1C(=O)N(c2c(F)c(OC)cc(OC)c2F)Cc2cnc3[nH]c(CN4CCOCC4)cc3c21 is > 10 µM

###

Target: UniProt Q16832
Sequence (Q16832 22-855): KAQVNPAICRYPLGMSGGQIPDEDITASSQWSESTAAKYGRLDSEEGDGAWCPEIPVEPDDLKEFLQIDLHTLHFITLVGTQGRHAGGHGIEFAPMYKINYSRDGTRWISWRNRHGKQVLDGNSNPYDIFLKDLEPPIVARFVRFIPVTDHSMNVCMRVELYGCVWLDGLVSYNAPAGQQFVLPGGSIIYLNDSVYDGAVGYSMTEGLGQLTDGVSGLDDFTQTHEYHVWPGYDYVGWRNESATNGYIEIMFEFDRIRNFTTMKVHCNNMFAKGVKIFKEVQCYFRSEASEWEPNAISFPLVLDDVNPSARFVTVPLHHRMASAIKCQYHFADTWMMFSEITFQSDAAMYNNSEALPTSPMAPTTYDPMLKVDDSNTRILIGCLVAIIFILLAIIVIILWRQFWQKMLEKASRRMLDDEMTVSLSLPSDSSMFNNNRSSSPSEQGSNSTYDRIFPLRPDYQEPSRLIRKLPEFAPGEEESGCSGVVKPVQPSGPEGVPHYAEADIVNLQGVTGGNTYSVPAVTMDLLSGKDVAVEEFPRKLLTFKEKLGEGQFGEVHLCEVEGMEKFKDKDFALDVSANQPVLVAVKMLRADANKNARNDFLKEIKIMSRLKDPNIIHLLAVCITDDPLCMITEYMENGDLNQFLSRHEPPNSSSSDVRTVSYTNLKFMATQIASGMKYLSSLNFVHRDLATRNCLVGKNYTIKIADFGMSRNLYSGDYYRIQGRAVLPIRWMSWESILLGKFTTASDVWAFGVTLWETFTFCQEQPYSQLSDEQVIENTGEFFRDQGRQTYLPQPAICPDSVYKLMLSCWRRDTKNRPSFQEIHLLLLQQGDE
Property label: IC50

Summary for this compound, CCN1C(=O)N(c2c(F)c(OC)cc(OC)c2F)Cc2cnc3[nH]c(CN4CCOCC4)cc3c21 : IC50 is > 10 µM

###

test: Pharmacokinetic analyses; type: in vivo, cynomolgus monkeys; conditions: cynomolgus monkey, plasma; male monkey, intravenous 1 mg/kg; read-out: Vss
Property label: Vd (L/kg)
Field: numeric (L/kg). Do not append units.

Summary for this molecule, CCN1C(=O)N(c2c(F)c(OC)cc(OC)c2F)Cc2cnc3[nH]c(CN4CCOCC4)cc3c21 [INCB054828, pemigatinib] : Vd is 0.584

###

pIC50: −log10 of the molar value.
Property label: pIC50

The reported CLK3 (Homo sapiens) pIC50 of CCN1C(=O)N(c2c(F)c(OC)cc(OC)c2F)Cc2cnc3[nH]c(CN4CCOCC4)cc3c21 [INCB054828, pemigatinib] is < 5.00

###

molecular target: MAP3K8 (Homo sapiens, UniProt P41279)
Sequence (P41279 whole entry, species assumed): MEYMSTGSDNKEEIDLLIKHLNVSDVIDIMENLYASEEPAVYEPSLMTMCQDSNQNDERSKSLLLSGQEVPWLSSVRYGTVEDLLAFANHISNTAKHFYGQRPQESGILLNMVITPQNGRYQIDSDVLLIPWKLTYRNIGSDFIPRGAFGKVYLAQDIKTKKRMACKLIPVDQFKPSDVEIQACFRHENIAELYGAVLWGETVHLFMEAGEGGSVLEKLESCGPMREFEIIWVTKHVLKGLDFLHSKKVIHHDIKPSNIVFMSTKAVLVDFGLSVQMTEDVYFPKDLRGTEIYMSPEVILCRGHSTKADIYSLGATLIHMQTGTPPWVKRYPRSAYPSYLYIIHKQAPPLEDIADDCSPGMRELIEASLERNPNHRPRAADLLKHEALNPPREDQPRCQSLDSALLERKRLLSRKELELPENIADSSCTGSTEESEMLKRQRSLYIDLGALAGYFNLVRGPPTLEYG
Property label: IC50

Summary for this compound, CCN1C(=O)N(c2c(F)c(OC)cc(OC)c2F)Cc2cnc3[nH]c(CN4CCOCC4)cc3c21 : IC50 is > 10 µM

###

Target chain: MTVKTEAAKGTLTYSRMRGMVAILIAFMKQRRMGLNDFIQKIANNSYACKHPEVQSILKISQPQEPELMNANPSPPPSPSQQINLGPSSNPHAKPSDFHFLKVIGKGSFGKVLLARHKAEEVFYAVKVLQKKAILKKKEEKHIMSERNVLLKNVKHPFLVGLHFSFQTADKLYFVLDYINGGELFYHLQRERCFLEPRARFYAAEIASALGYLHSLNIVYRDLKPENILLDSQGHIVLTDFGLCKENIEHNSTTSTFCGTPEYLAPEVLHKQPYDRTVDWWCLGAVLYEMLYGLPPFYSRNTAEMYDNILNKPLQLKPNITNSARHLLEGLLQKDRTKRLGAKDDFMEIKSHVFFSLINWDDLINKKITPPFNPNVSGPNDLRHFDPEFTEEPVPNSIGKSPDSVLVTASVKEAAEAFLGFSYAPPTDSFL
pIC50: −log10 of the molar value.
Property label: pIC50

Summary for this compound, CCN1C(=O)N(c2c(F)c(OC)cc(OC)c2F)Cc2cnc3[nH]c(CN4CCOCC4)cc3c21 : pIC50 is < 5.00
